Target: Recombinant cyno B7-H3 (cyno)
Assay: SPR (such as Biacore T200), against cyno B7-H3
Give measured kon for each item. Keep answers brief.
Unit M⁻¹ s⁻¹ implied. Number only.

Bench note: what kon did SCT-Da192 (antibody, V domains shown) VH: EVQLQQSGPELVKPGASVKISCKTSGYTFTEYTMHWVKQSHGKSLEWIGVINPNNGGTTYNQKFKGKATLTVDKSSSTAYMELRSLTSEDSAVYYCARPHSLLRLRREFDYWGQGTTLTVSS VL: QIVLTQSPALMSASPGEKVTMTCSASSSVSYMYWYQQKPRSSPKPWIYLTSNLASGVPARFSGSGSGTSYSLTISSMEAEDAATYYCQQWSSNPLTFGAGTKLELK show?
307000

What does the data say about its kon? Entry: SCT-Da182 (antibody, V domains shown) VH: EVQLQQSGPELVKPGASMKISCKVSGFSFTGYTMNWVKQSHGKNLEWIGLINTYNGGTFYNQKFKAKATLTVDKSSSTAHMELLSLTSEDSAVYYCARSPGRYSMDYWGQGTSVTVSS VL: DIVLTQSPASLAVSLGQRATISCKASQSVDYNGYSYLNWYQQKPGQPPKLLIYPASNLESGIPARFSGSGSGTDFTLNIHPVEEEDAATYYCQQSKEDPYTFGGGTKLEIK
232000

Given the entry SCT-Da250 (antibody, V domains shown) VH: QGQMQQSGAELVKPGASVRLSCKTSGFTFSSFYISWLKQKPGQSLEWIAWIYAGPGYTSYNQKFTGKAQLTVDTSSSTAYMQFSSLTTEDSAIYYCARHVGRQRGYFDVWGAGTTVTVSS VL: DIVMTQSHKFMSTSVGDRVSITCKASQDVSTAVAWYQQKPGQSPKLLIYSASYRYTGVPDHFTVSGSGTDFTFTISSVQAEDLAVYYCQQHYSTPWTFGGGTKLEIK , report its measured kon.
905000
